Hi there, I'd appreciate the recorded microsomal CLint for every entry that follows.
- test summary: Phase I metabolism kinetics (parent toxin loss) in NADPH-fortified human liver microsomes, LC-MS/MS
- Format: in vitro ADME
- condition set: male, human, liver microsomes, pH 7.4, human LMs, linear regression, lower concentration range; read-out: CLint (intrinsic clearance)
- Description: Pooled human LMs and pooled Sprague–Dawley rat hepatic microsomes, both originating from male donors, were purchased from Sigma-Aldrich (St. Louis, MO, USA) and Gibco, Thermo Fisher Scientific (Waltham, MA, USA), respectively. Porcine LMs were prepared according to an in-house-developed protocol based on the publication of Knights et al.[32] The liver of an approximately four-month-old female “Large White” (or “German Edelschwein”) pig was obtained from a local slaughterhouse. […]
Could you give me the number in µL/min/mg? Just the number is fine.

Write down microsomal CLint measured for item Cc1cc(O)cc2oc(=O)c3c(O)cc(O)cc3c12
19.9

Write down microsomal CLint measured for item COc1cc(O)c2c(=O)oc3cc(O)cc(C)c3c2c1
15.8

###

Hi there, I'd appreciate the recorded Km for every entry that follows.
- test summary: Phase I metabolism kinetics (parent toxin loss) in NADPH-fortified human liver microsomes, LC-MS/MS
- Assay type: in vitro ADME
- condition set: male, liver microsomes, pH 7.4; human LMs 1 mg protein/mL, NADPH, within 10 min, Michaelis–Menten model; read-out: Km (Michaelis constant)
- Protocol: Pooled human LMs and pooled Sprague–Dawley rat hepatic microsomes, both originating from male donors, were purchased from Sigma-Aldrich (St. Louis, MO, USA) and Gibco, Thermo Fisher Scientific (Waltham, MA, USA), respectively. Porcine LMs were prepared according to an in-house-developed protocol based on the publication of Knights et al.[32] The liver of an approximately four-month-old female “Large White” (or “German Edelschwein”) pig was obtained from a local slaughterhouse. […]
Could you give me the number in µM? Just the number is fine.

Write down Km measured for item COc1cc(O)c2c(=O)oc3cc(O)cc(C)c3c2c1
29.4

Write down Km measured for item Cc1cc(O)cc2oc(=O)c3c(O)cc(O)cc3c12
131

###

- test summary: Phase I metabolism kinetics (parent toxin loss) in NADPH-fortified porcine liver microsomes, LC-MS/MS
- Format: in vitro ADME, pig
- condition set: female, Large White, pig, liver microsomes, pH 7.4, porcine LMs, Michaelis–Menten model, ratio Vmax/Km; read-out: CLint (intrinsic clearance)
- Experimental: Pooled human LMs and pooled Sprague–Dawley rat hepatic microsomes, both originating from male donors, were purchased from Sigma-Aldrich (St. Louis, MO, USA) and Gibco, Thermo Fisher Scientific (Waltham, MA, USA), respectively. Porcine LMs were prepared according to an in-house-developed protocol based on the publication of Knights et al.[32] The liver of an approximately four-month-old female “Large White” (or “German Edelschwein”) pig was obtained from a local slaughterhouse. […]
measured attribute: microsomal CLint (µL/min/mg)
Could you give me the number in µL/min/mg? Just the number is fine.

Write down microsomal CLint measured for item COc1cc(O)c2c(=O)oc3cc(O)cc(C)c3c2c1
19.5

Write down microsomal CLint measured for item Cc1cc(O)cc2oc(=O)c3c(O)cc(O)cc3c12
8.52

###

- test summary: Pattern of oxidative metabolites in human LMs by HR-MS
- Format: in vitro ADME
- condition set: human LMs incubated with AME
measured attribute: relative abundance among phase I metabolites (in words)

COc1cc(O)c2c(=O)oc3cc(O)c(O)c(C)c3c2c1 [2-OH-AME] = most abundant
Cc1cc(O)cc2oc(=O)c3c(O)cc(O)cc3c12 [AOH, alternariol] = small amounts
COc1cc(O)c2c(=O)oc3c(O)c(O)cc(C)c3c2c1 [4-OH-AME] = most abundant
COc1cc2c(c(O)c1O)c(=O)oc1cc(O)cc(C)c12 [8-OH-AME] = small amounts
